- measured.on: AGBL2 (Homo sapiens)
- Construct: His (N); protein recovered from inclusion bodies
- Sequence (Q5U5Z8 whole entry): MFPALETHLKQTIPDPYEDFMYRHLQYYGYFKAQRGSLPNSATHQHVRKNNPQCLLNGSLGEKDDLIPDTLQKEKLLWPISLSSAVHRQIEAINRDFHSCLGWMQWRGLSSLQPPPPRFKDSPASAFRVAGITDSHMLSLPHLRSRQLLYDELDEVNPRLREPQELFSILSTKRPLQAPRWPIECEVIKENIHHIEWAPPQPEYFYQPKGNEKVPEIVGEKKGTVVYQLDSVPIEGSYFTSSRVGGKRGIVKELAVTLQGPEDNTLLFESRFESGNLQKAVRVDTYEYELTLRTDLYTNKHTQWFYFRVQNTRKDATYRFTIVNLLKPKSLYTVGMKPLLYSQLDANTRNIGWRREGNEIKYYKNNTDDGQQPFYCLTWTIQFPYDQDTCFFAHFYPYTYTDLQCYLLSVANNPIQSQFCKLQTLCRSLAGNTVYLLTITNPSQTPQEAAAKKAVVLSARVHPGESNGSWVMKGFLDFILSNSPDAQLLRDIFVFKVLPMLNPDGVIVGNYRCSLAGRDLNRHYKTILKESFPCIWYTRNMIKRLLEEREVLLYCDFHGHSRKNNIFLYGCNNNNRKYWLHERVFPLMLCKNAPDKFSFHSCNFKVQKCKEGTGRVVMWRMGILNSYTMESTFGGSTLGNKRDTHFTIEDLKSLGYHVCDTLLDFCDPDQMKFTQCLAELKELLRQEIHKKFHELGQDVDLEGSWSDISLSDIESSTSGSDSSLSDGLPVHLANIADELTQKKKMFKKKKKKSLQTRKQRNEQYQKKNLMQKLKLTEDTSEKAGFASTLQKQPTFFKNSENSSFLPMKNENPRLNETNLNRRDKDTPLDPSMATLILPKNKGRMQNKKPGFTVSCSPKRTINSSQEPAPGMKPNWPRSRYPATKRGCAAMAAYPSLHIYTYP
- protocol.details: Enzyme inhibition kinetic assay (fluorometric, release of tyrosine from hydroxycoumarin-conjugated tubulin CTT substrate)
- assay.context: 1 nM recombinant AGBL2; substrate 1 μM; 25° C., pH 7.5; apparent Ki fitted to Morrison equation for tight-binding inhibitors
- Source text: Fluorescence Resonance Energy Transfer (FRET) principle can be applied to generate real-time enzymatic activity data. The tyrosinated C-terminal tail of tubulin has a tyrosine at the C-terminal. Tyrosines absorb at 270 nm and emit in the 280 to 350 nm range with a λMax=303 nm. Adding a hydroxycoumarin that absorbs in the range of 300 to 350 nm to the N-terminal of the CTT of tubulin (see FIG. 5) allows the quenching of the tyrosine emission that can be monitored at 303 nm. […]
measure: Ki (nM)

Cc1cc(C(F)(F)F)cnc1CC(=O)O [Sd-2] ... 87
CC(C)c1ccc(Sc2ccc(F)cc2CC(=O)O)cc1 [Sd-3] ... 428

[P] Cc1cc(F)cnc1CC(=O)O [Sd-1]
[Q] O=C(O)Cc1cccc(C(=O)Nc2ccc3c(c2)OCO3)c1 [Sd-4]
Query string: Which value of Ki is numerically greater: that of P or that of Q ? Provide the label of your selected option as the answer.
Result string: P
(P: 173 nM, Q: 4.89 nM)
